Data origin: patent US20140212495A1

- assay.info: 4-week subchronic toxicity study in dogs, D-24851 plasma pharmacokinetics
- Assay type: in vivo
- experimental.setup: male, dog, plasma, iv, 2.61 mg/kg, Day 27; Composition 4 i.v. 2.61 mg/kg; Males; Meanar n=3; read-out: Cmax, md
value.type: Cmax (ng/mL)
Reply numerically in ng/mL, unit not repeated.

Entry `O=C(Nc1ccncc1)C(=O)c1cn(Cc2ccc(Cl)cc2)c2ccccc12` , Cmax reported as 224

* * *

- assay.info: 4-week subchronic toxicity study in dogs, D-24851 plasma pharmacokinetics
- Type: in vivo
- experimental.setup: male, dog, plasma, iv, 12.1 mg/kg, Day 1; Composition 4 i.v. 12.1 mg/kg; Males; Meanar n=3; read-out: AUCsd
value.type: AUC (ng·h/mL)
Could you give me the number in ng·h/mL? Just the number is fine.

`O=C(Nc1ccncc1)C(=O)c1cn(Cc2ccc(Cl)cc2)c2ccccc12` yielded AUC of 6980

* * *

- assay.info: 4-week subchronic toxicity study in dogs, D-24851 plasma pharmacokinetics
- Type: in vivo
- experimental.setup: male, dog, plasma, iv, 5.62 mg/kg; read-out: AUC0-tlast,md
value.type: AUC(0-t)
Report as: number unit

So, `O=C(Nc1ccncc1)C(=O)c1cn(Cc2ccc(Cl)cc2)c2ccccc12` ? Its AUC(0-t) was 1320 ng·h/mL

* * *

- assay.info: 4-week subchronic toxicity study in dogs, D-24851 plasma pharmacokinetics
- Format: in vivo
- experimental.setup: male, dog, plasma, iv, 5.62 mg/kg; read-out: tmax, sd
value.type: Tmax
Form field: result (number plus unit)

// recorded Tmax for `O=C(Nc1ccncc1)C(=O)c1cn(Cc2ccc(Cl)cc2)c2ccccc12` : 2 h

* * *

- assay.info: 4-week subchronic toxicity study in dogs, D-24851 plasma pharmacokinetics
- Assay type: in vivo
- experimental.setup: male, dog, plasma, iv, 2.61 mg/kg; read-out: AUC0-tlast,md
value.type: AUC(0-t) (ng·h/mL)
Please respond with the number in ng·h/mL and leave the unit unwritten.

Quick note, AUC(0-t) for `O=C(Nc1ccncc1)C(=O)c1cn(Cc2ccc(Cl)cc2)c2ccccc12` landed at 1450

* * *

- assay.info: 4-week subchronic toxicity study in dogs, D-24851 plasma pharmacokinetics
- Assay type: in vivo
- experimental.setup: female, dog, plasma, iv, 2.61 mg/kg, Day 27; Composition 4 i.v. 2.61 mg/kg; Females; only for orientating, insufficient curve fitting
value.type: half-life (h)
Give the number; h is assumed, so skip it.

Memo: O=C(Nc1ccncc1)C(=O)c1cn(Cc2ccc(Cl)cc2)c2ccccc12 [Composition D-24851] , reported half-life: 28.3

* * *

- assay.info: 4-week subchronic toxicity study in dogs, D-24851 plasma pharmacokinetics
- Format: in vivo
- experimental.setup: female, dog, plasma, iv, 2.61 mg/kg, Day 1; Composition 4 i.v. 2.61 mg/kg; Females; Meanar n=3; read-out: tmax, sd
value.type: Tmax (h)
Give just the numeric value; h need not be written.

O=C(Nc1ccncc1)C(=O)c1cn(Cc2ccc(Cl)cc2)c2ccccc12 [Composition D-24851] has a reported Tmax of 1.67

* * *

- assay.info: 4-week subchronic toxicity study in dogs, D-24851 plasma pharmacokinetics
- Assay type: in vivo
- experimental.setup: male, dog, plasma, iv, 5.62 mg/kg, Day 27; Composition 4 i.v. 5.62 mg/kg; Males; Meanar n=3; read-out: Cmax, md
value.type: Cmax (µg/mL)
Please state the figure in µg/mL; there is no need to write the unit.

Cmax reported for this compound `O=C(Nc1ccncc1)C(=O)c1cn(Cc2ccc(Cl)cc2)c2ccccc12` : 0.186
